- assay system: indoleamine 2, 3-dioxygenase (IDO1) (Homo sapiens)
- Sequence (P14902 whole entry): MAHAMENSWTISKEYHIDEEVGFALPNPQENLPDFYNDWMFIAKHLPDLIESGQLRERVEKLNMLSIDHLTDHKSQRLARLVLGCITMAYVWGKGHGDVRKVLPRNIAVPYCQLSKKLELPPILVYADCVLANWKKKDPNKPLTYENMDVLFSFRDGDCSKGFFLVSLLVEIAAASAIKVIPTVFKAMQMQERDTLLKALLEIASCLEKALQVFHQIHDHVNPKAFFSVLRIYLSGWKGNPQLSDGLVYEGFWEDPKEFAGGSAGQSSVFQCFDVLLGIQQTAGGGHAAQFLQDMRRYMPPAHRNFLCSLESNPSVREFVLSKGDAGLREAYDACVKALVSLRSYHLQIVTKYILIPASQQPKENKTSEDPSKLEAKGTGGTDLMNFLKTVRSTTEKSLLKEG
- protocol text: IDO1 PBMC RapidFire MS assay (kynurenine detection by mass spectrometry)
- Assay type: cell-based
- Set-up: to induce the expression of indoleamine 2, 3-dioxygenase (IDO1); host or cells: human PBMC stimulated with IFN-gamma and LPS
- conditions used: human PBMC stimulated with IFN-γ and LPS, 2 days, pIC50, read-out: PBMC PXC50 (converted)
recorded metric: IC50 (nM)
Please reply with the bare figure in nM and do not write the unit itself.

INSERT INTO results (molecule, endpoint_value) VALUES
  ('CC(=O)N1CCC(N(CC(C)C)c2ccc([C@H](C)CC(=O)O)cc2Nc2nc(C(F)(F)F)ns2)CC1', 3.16),
  ('COC(=O)N1CCC(N(CC(C)C)c2ccc([C@H](C)CC(=O)O)cc2Nc2nc(C(F)(F)F)ns2)CC1', 1.58),
  ('CC(C)CN(c1ccc(C2CC2C(=O)O)cc1Nc1nc(C(F)(F)F)ns1)C1CCCCC1 (single isomer, unassigned) [Example 105]', 3.16),
  ('CC(C)CN(c1ccc(C(C)CC(=O)O)cc1Nc1nnc(C(=O)NC2CC2)s1)C1CCCCC1 (stereo not shown)', 20),
  ('CC(C)CN(c1ccc(C(C)CC(=O)O)cc1Nc1nncs1)C1CCCCC1 (stereo not shown)', 20),
  ('CC(C)CN(c1ccc([C@H](C)CC(=O)O)cc1Nc1ccc(C(F)(F)F)cn1)C1CCOCC1', 3.98),
  ('COCCN(c1ccc(-c2ccccc2C(=O)O)cc1Nc1nc2ccccc2o1)C1CCCCC1', 200),
  ('CO[C@H](C)CN(C[C@@H](C)OC)c1ccc([C@H](C)CC(=O)O)cc1Nc1nc(C(F)(F)F)ns1', 79.4);

The record that follows has no IC50 shown yet.
Input "CC(C)CN(c1ccc([C@H](C)CC(=O)O)cc1NC1CCC1)C1CCCCC1" . Output IC50: 158
